Test system: KATO III stomach cancer cell line
measurementDescription: Tested in vitro against KATO-III human stomach adenocarcinoma
Type: functional, cell-based
Field: pIC50. Provide a value for each of the molecules that follow.
// pIC50 here means minus log10 of the molar concentration (mol/L)

pIC50 value, target or system KATO III stomach cancer cell line, for Cl.N#C[C@H]1[C@H](O)[C@@H](CO)O[C@H]1n1ccc(N)nc1=O : 4.25

pIC50 value, target or system KATO III stomach cancer cell line, for N#CC1=C[C@@H](CO)O[C@H]1n1ccc(N)nc1=O : 4.50

###

Field: pIC50. Provide a value for each of the compounds that follow.
Tested on: ST-KM-1
measurementDescription: Tested in vitro against ST-KM human stomach adenocarcinoma
Format: functional, cell-based
conditionDescription: ST-KM-1, Stomach
// pIC50 here means minus log10 of the molar concentration (mol/L)

compound Cl.N#C[C@H]1[C@H](O)[C@@H](CO)O[C@H]1n1ccc(N)nc1=O , pIC50 observed: 5.01

compound N#CC1=C[C@@H](CO)O[C@H]1n1ccc(N)nc1=O , pIC50 observed: 3.46

Where these numbers come from: ChEMBL document CHEMBL1126568
